Provenance of the data: patent US20200190172A1

Test system: anti-spadin antibodies (AB1 polyclonal antibody)
Assay: AlphaLISA competition assay: biotinylated spadin / anti-spadin antibody displaced by peptides
Type: binding, rabbit
Settings: AlphaLISA, FIG. 1A-1C
Metric name: recognition by the anti-spadin antibodies (AB1)

{"Substance": "APLPRWSGPIGVSWGLR [spadin]", "Observed": "recognized"}
{"Substance": "APLPRWSGPIGVSWGL [12-27 PE, peptide fragment 12 to 27 of the propeptide]", "Observed": "recognized"}
{"Substance": "GVSWGLR [22-28 PE, peptide fragment 22 to 28 of the propeptide]", "Observed": "not recognized"}
{"Substance": "QDRLDAPPPPAAPLPR [1-16 PE, peptide fragment 1 to 16 of the propeptide]", "Observed": "not recognized"}

Proceeding to the next substance to report its recognition by the anti-spadin antibodies (AB1).
Enquiry: Which measured recognition by the anti-spadin antibodies (AB1) value corresponds to LPRWSGPIGVSW [14-25 PE, peptide fragment 14 to 25 of the propeptide] ?
Return: recognized
